# SUBJECT OF TEST: MLK3 (Homo sapiens (Human), UniProt Q16584)
# Sequence (Q16584 whole entry): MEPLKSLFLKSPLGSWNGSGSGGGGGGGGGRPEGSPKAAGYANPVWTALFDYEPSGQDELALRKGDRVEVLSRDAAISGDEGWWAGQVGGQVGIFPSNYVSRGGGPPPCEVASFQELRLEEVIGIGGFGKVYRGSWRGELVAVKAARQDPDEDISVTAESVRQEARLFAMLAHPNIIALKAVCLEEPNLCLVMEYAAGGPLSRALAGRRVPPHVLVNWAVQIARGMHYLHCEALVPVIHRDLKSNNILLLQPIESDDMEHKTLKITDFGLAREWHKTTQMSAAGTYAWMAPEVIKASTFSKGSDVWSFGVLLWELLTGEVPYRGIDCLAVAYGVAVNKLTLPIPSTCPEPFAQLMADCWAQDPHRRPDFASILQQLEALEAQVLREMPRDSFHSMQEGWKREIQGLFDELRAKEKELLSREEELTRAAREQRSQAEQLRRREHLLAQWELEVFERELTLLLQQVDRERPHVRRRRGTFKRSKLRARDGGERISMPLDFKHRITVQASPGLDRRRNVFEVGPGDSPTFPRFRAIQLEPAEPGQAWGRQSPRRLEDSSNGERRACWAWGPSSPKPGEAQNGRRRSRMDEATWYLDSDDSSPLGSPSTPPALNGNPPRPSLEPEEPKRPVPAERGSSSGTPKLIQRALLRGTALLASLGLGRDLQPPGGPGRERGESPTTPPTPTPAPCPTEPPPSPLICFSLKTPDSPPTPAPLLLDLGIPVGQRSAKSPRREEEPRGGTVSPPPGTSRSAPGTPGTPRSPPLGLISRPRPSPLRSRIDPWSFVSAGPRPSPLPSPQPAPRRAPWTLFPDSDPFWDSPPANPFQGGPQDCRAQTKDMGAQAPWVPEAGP
# METHOD DESCRIPTION: Radiometric filter plate MLK3 assay
# Format: biochemical
# EXPERIMENTAL CONDITIONS: 2 μM cold ATP (Km), 1 μM inactive MKK7b, twenty minute incubation; read-out: MK3 IC50
Reported values of IC50 for individual entries

> print(dat)
                              line.notation  measured.value
1  CC(=O)N1CCN(Cc2ccc(-c3cnc4[nH]cc(-c5ccc(C(N)=O)cc5)c4c3)cc2)CC1        < 100 nM
2  COc1ccc(-c2cnc3[nH]c(=O)n(-c4ccc5[nH]ncc5c4)c3n2)cc1OC       > 1000 nM
3  COc1cc(-c2cnc3[nH]c(=O)n(-c4ccc(N5CCOCC5)nc4)c3n2)cc(OC)c1OC       > 1000 nM
4  CN1CCN(Cc2ccc(-c3cnc4[nH]cc(-c5ccc6nccc(O)c6c5)c4c3)cc2)CC1        < 100 nM
5  CCS(=O)(=O)N1CCN(Cc2ccc(-c3cnc4[nH]cc(-c5ccc6[nH]ccc6c5)c4c3)cc2)CC1        < 100 nM
6  CN(C)Cc1ccc(-c2cnc3[nH]cc(-c4ccc5[nH]ccc5c4)c3c2)cc1        < 100 nM
7  COc1cc(-c2cnc3c(c2)C(=Cc2cccc(C#N)c2)C(=O)N3)cc(OC)c1OC       > 1000 nM
8  Cn1ccc2cc(-n3c(=O)[nH]c4ncc(-c5ccc(O)cc5)nc43)ccc21       > 1000 nM

Which IC50 reading was recorded for the compound `CN(C)c1ccc(-c2cnc3[nH]cc(-c4ccc(F)c(Cl)c4)c3c2)cn1` ?
> 1000 nM

Next entry: `COc1ccc(-c2cnc3[nH]cc(-c4ccc5[nH]ccc5c4)c3n2)cc1OC`
< 100 nM

Continue with `COc1cc(-c2cnc3[nH]c(=O)n(-c4ccc5[nH]ccc5c4)c3n2)ccc1O`
< 100 nM

Try the compound `COc1cc(-c2cnc3[nH]c(=O)n(-c4ccc5[nH]ccc5c4)c3n2)cc(OC)c1OC`
< 100 nM

Also `COc1cc(-c2cnc3[nH]cc(-c4ccc5[nH]ccc5c4)c3c2)ccc1OCCN(C)C` ?
> 1000 nM

Next entry: `COc1cc(-c2cnc3c(c2)C(=Cc2ccc(C#N)cc2)C(=O)N3)cc(OC)c1OC`
> 1000 nM

---

# SUBJECT OF TEST: MLK3 (Homo sapiens (Human))
# METHOD DESCRIPTION: Radiometric filter plate MLK3 assay
# Format: biochemical
# EXPERIMENTAL CONDITIONS: 2 μM cold ATP (Km), 1 μM inactive MKK7b, twenty minute incubation; read-out: MK3 IC50
pIC50: −log10 of the molar value.
RECORDED ENDPOINT: pIC50

The following compounds have reported results that may help.
> print(dat)
                                   compound  measured.value
1  CN1CCN(Cc2ccc(-c3c[nH]c4ncc(-c5ccc(C(N)=O)cc5)cc34)cc2)CC1 [Example 162]          > 7.00
2  O=c1[nH]c2ncc(-c3ccncc3)nc2n1-c1ccc2[nH]ncc2c1 [Example 88]          < 6.00
3  COC(=O)N1CCN(Cc2ccc(-c3cnc4[nH]cc(-c5ccc6[nH]ccc6c5)c4c3)cc2)CC1 [Example 194]          > 7.00

Given the entry O=c1[nH]c2ncc(-c3ccc(N4CCOCC4)cc3)nc2n1CC1CC1 [Example 86] , report its measured pIC50.
< 6.00
